Recorded values, source patent US20260071182A1.

- System tested: T1, Biotinylated Human NKp46/NCR/CD335 Protein, Fc, Avitag (NC1-H82F9) (human, UniProt O76036 22-255, biotinylated (Avitag))
- T1 construct: Bought from ACROBiosystems, catalog NC1-H82F9; not shown: Fc and Avitag of the purchased protein
- T1 sequence (O76036 22-255): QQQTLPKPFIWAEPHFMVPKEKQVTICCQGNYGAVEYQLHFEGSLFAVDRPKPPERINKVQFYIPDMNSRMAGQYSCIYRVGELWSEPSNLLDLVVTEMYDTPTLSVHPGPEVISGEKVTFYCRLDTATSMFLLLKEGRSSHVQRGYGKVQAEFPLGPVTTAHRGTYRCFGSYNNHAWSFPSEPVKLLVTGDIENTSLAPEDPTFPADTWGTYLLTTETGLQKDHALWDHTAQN
- Procedure text: BLI (Octet RED96), target on sensor, monobody in five 2-fold dilutions
Measure name: koff (s⁻¹)
Unit s⁻¹ implied. Number only.

Worked examples, 2 binders total:
Mb-NKp46-CD-3 (designed binder, Monobody on human fibronectin type III domain scaffold, CD-FG library; also called NKp46 CD-FG No. 3; not shown: N-terminal residues of the expression construct (X7n7; the library has MPNR), linker, Sortase A recognition site and His tag) LEVVEASPTSIQISWDAPAVTVRYYVISYGETGRYKYHRRINVQGFTVPGSKSTATISGLKPGVDYTITVYAVTGTQWYVFNEAGDVAGYPISINYRTEIDKPSQ | 7e-05
Mb-NKp46-BC-2 (designed binder, Monobody on human fibronectin type III domain scaffold, BC-FG library; also called NKp46 BC-FG No. 2; not shown: N-terminal residues of the expression construct (X7n7; the library has MPNR), linker, Sortase A recognition site and His tag) LEVVEASPTSIQISWDAWTWLGYEYYWVRYYRITYGETGGNSPVQEFTVPGSKSTATISGLKPGVDYTITVYAVTWDSKPGAIGIPISINYRTEIDKPSQ | 0.00047

# koff (binder: Mb-NKp46-CD-1 (designed binder, Monobody on human fibronectin type III domain scaffold, CD-FG library; also called NKp46 CD-FG No. 1; not shown: N-terminal residues of the expression construct (X7n7; the library has MPNR), linker, Sortase A recognition site and His tag) LEVVEASPTSIQISWDAPAVTVRYYDIYYGETGPGYYMWQRGVINVQAFTVPGSKSTATISGLKPGVDYTITVYAVTGQERAYGHPEHFPISINYRTEIDKPSQ ) is 7.2e-05
